- target or test system: T1, murine IL-22 (murine, UniProt Q9JJY9 34-179)
- T1 construct: also called mouse IL-22
- T1 sequence: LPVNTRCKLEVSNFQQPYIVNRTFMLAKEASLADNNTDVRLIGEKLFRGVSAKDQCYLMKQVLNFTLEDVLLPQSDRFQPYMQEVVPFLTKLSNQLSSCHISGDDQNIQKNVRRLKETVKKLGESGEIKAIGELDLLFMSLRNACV
- protocol description: ELISA: plate coated with 1 µg/ml antigen, IgG at 1 µg/ml, HRP anti-human IgG, A450
parameter measured: binding result

[[record]]
binder = "368D04 IgG (non-germlined) (antibody, V domains shown) VH: EVQLVESGGGVVRPGGSLRLSCAASGFTFDDYGMNWVRQAPGKGLEWVSGVNWNGGTRDYAASVKGRFTISRDNAKNSLYLQMNSLRAEDTALYYCARGWYSGAAWNMGYWGRGTLVTVSS VL: QAVLTQPSSVSGSPGQSITISCTGASGDVGAYNFVSWYQQHPGKTPKLIIYDVNKRPSGVSNRFSGSKSGNTASLTISGLQAEDESDYYCASLVSDFSVVFGGGTKVTVLG"
observed_measurement = "binds"

[[record]]
binder = "355E04 germlined IgG (antibody, V domains shown) VH: QVQLVQSGAEVKKPGASVKVSCKASGYTFTHYYMHWVRQAPGQGLEWVGWINPYTGGAFYAQKFQGRVTMTRDTSISTAYMELSRLRSDDTAVYYCAREPEKFDSPNAEIWGRGTLVTVSS VL: QAVLTQPPSVSGAPGQRVTISCTGSSSNIGAGYGVHWYQQLPGTAPKLLIYGNSNRPSGVPDRFSGSKSGTSASLAITGLQAEDEADYYCQSYDSSLSGYVFGGGTQLTVLG"
observed_measurement = "binds"

